The values you see were collected from patent US20230339939A1.

pIC50: −log10 of the molar value.
// CSNK1D (Homo sapiens (Human), UniProt P48730) pIC50 records

| molecule | pIC50 |
| --- | --- |
| CN1CCC(N(C)c2ccnc3c(-c4ccccn4)c(-c4ccnc(NC(=O)Cc5ccc(F)cc5)c4)[nH]c23)CC1 | 7.87 |
| Cc1cc2[nH]c(-c3ccnc(NC(=O)C(C)c4ccc(F)cc4)c3)c(-c3ccccn3)c2nc1F (single isomer, unassigned; (-)) [Example 30] | 8.33 |
| COCCC(C(=O)Nc1cc(-c2[nH]c3cccnc3c2-c2ccccn2)ccn1)c1ccc(F)cc1 (racemic) | 8.01 |
| CC(C(=O)Nc1cc(-c2[nH]c3ccc(F)nc3c2-c2ccccn2)ccn1)c1ccc(F)cc1 (single isomer, unassigned; (+)) [Example 3] | 8.54 |
| CC(C(=O)Nc1cc(-c2[nH]c3cc(Cl)cnc3c2-c2ccccn2)ccn1)c1ccc(F)cc1 (stereo not drawn) | 7.69 |
| CC(C(=O)Nc1cc(-c2[nH]c3ccc(F)nc3c2-c2ccccn2)ccn1)c1ccc(F)cc1 (racemic) [Example 1] | 8.34 |
| Cc1cc2[nH]c(-c3ccnc(NC(=O)C(C)c4ccc(F)cc4)c3)c(-c3ccccn3)c2nc1F (single isomer, unassigned; (+)) [Example 29] | 7.52 |
| COc1ccc2[nH]c(-c3ccnc(NC(=O)Cc4ccc(F)cc4)c3)c(-c3ccccn3)c2n1 | 8.12 |
| O=C(Cc1ccc(F)cc1)Nc1cc(-c2[nH]c3c(Cl)ccnc3c2-c2ccccn2)ccn1 | 8.23 |
| O=C(Cc1ccc(F)cc1)Nc1cc(-c2[nH]c3cc(F)cnc3c2-c2ccccn2)ccn1 | 8.32 |
| CC(C(=O)Nc1cc(-c2[nH]c3ccc(F)nc3c2-c2ccc(F)cn2)ccn1)c1ccc(F)cc1 (single isomer, unassigned; (-)) | 7.48 |
| Cc1cc2[nH]c(-c3ccnc(NC(=O)C(C)c4ccc(F)cc4)c3)c(-c3ccccn3)c2nc1F (racemic) [Example 28] | 7.95 |
| COc1ccnc2c(-c3ccccn3)c(-c3ccnc(NC(=O)Cc4ccc(F)cc4)c3)[nH]c12 | 8.36 |
| O=C(Cc1ccc(F)cc1)Nc1cc(-c2[nH]c3ccc(F)nc3c2-c2ccccn2)ccn1 | 8.63 |
| O=C(Cc1ccc(F)cc1)Nc1cc(-c2[nH]c3cc(F)cnc3c2-c2ccccc2)ccn1 | 8.37 |
| O=C(Cc1ccc(F)cc1)Nc1cc(-c2[nH]c3ccc(F)nc3c2-c2ccc(F)cn2)ccn1 | 8.50 |
| O=C(Cc1ccc(F)cc1)Nc1cc(-c2[nH]c3c(C4CC4)ccnc3c2-c2ccccn2)ccn1 | 8.38 |
| CC(C(=O)Nc1cc(-c2[nH]c3cccnc3c2-c2ccccc2)ccn1)c1ccc(F)cc1 (racemic) | 8.15 |
| CC(C)C(C(=O)Nc1cc(-c2[nH]c3ccc(F)nc3c2-c2ccccn2)ccn1)c1ccc(F)cc1 (single isomer, unassigned; (-)) [Example 25] | 7.25 |
| O=C(Cc1ccccc1)Nc1cc(-c2[nH]c3cccnc3c2-c2ccccn2)ccn1 | 8.24 |
| CN1CCN(c2ccnc3c(-c4ccccn4)c(-c4ccnc(NC(=O)Cc5ccc(F)cc5)c4)[nH]c23)CC1 | 8.25 |

====

molecular target: CSNK1A1 (Homo sapiens (Human), UniProt P48729); test: CSNK1A1 Assay 2 (ADP-Glo, 1 μM ATP, substrate biotin-Ahx-KRRRAL-pS-VASLPGL); assay type: biochemical; settings: median, read-out: CSNK1A1 Assay 2 IC50 [mol/l] (median)
Sequence (P48729 whole entry): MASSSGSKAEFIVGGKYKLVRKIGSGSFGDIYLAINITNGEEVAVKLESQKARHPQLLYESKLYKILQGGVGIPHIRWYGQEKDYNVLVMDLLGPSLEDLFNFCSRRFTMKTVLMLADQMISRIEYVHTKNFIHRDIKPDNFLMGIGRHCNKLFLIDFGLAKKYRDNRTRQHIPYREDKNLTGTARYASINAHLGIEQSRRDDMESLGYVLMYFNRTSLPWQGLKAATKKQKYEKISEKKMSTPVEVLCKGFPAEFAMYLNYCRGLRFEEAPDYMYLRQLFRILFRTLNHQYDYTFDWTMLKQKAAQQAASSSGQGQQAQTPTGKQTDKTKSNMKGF

| compound | IC50 / nM |
| --- | --- |
| O=C(Cc1ccc(F)cc1)Nc1cc(-c2[nH]c3c(Cl)ccnc3c2-c2ccccn2)ccn1 | 1.6 |
| COCC(C(=O)Nc1cc(-c2[nH]c3cc(F)cnc3c2-c2ccccn2)ccn1)c1ccc(F)cc1 (racemic) | 4.83 |
| COc1ccnc2c(-c3ccccn3)c(-c3ccnc(NC(=O)Cc4ccc(F)cc4)c3)[nH]c12 | 2.5 |
| CC(C(=O)Nc1cc(-c2[nH]c3cccnc3c2-c2ccccn2)ccn1)c1ccc(F)cc1 (racemic) [Example 6] | 1.73 |
| Cc1cc2[nH]c(-c3ccnc(NC(=O)C(C)c4ccc(F)cc4)c3)c(-c3ccccn3)c2nc1F (racemic) [Example 28] | 4.61 |
| O=C(Cc1ccc(F)cc1)Nc1cc(-c2[nH]c3ccc(Cl)nc3c2-c2ccccn2)ccn1 | 0.941 |
| O=C(Cc1ccc(F)cc1)Nc1cc(-c2[nH]c3cc(F)cnc3c2-c2ccccc2)ccn1 | 3.83 |
| Cc1cc2[nH]c(-c3ccnc(NC(=O)C(C)c4ccc(F)cc4)c3)c(-c3ccccn3)c2nc1F (single isomer, unassigned; (+)) [Example 29] | 13.8 |
| CC(C(=O)Nc1cc(-c2[nH]c3cccnc3c2-c2ccccc2)ccn1)c1ccc(F)cc1 (racemic) [Example 11] | 6.11 |
| O=C(Cc1ccc(F)cc1)Nc1cc(-c2[nH]c3nccnc3c2-c2ccccn2)ccn1 | 1.02 |
| O=C(Cc1ccc(F)cc1)Nc1cc(-c2[nH]c3cccnc3c2-c2ccccc2)ccn1 | 1.04 |
| CC(C(=O)Nc1cc(-c2[nH]c3cccnc3c2-c2ccccc2)ccn1)c1ccc(F)cc1 (single isomer, unassigned; (+)) [Example 13] | 1.66 |
| CC(C(=O)Nc1cc(-c2[nH]c3ccc(F)nc3c2-c2ccccn2)ccn1)c1ccc(F)cc1 (single isomer, unassigned; (+)) [Example 3] | 1 |
| O=C(Cc1ccc(F)cc1)Nc1cc(-c2[nH]c3cccnc3c2-c2ncccn2)ccn1 [Example 16] | 4.77 |
| CC(C(=O)Nc1cc(-c2[nH]c3cc(Cl)cnc3c2-c2ccccn2)ccn1)c1ccc(F)cc1 (centres unmarked) | 6.26 |
| O=C(Cc1ccc(F)cc1)Nc1cc(-c2[nH]c3cccnc3c2-c2cccc(F)c2)ccn1 | 1.87 |
| O=C(Cc1ccc(F)cc1)Nc1cc(-c2[nH]c3c(N4CCCC4=O)ccnc3c2-c2ccccn2)ccn1 | 6.26 |
| Cc1cc2[nH]c(-c3ccnc(NC(=O)C(C)c4ccc(F)cc4)c3)c(-c3ccccn3)c2nc1F (single isomer, unassigned; (-)) [Example 30] | 1.69 |
| CC(C(=O)Nc1cc(-c2[nH]c3cccnc3c2-c2ccccn2)ccn1)c1ccc(F)cc1 (single isomer, unassigned; (-)) [Example 8] | 7.53 |
| Cc1cc2[nH]c(-c3ccnc(NC(=O)Cc4ccc(F)cc4)c3)c(-c3ccccn3)c2nc1F | 1.6 |
| O=C(Cc1ccc(Cl)cc1)Nc1cc(-c2[nH]c3cccnc3c2-c2ccccn2)ccn1 | 1.23 |
| CC(C(=O)Nc1cc(-c2[nH]c3ccc(F)nc3c2-c2ccccn2)ccn1)c1ccc(F)cc1 (racemic) [Example 1] | 1.66 |
| CCc1ccnc2c(-c3ccccn3)c(-c3ccnc(NC(=O)Cc4ccc(F)cc4)c3)[nH]c12 | 3.08 |
| CC(C)C(C(=O)Nc1cc(-c2[nH]c3ccc(F)nc3c2-c2ccccn2)ccn1)c1ccc(F)cc1 (single isomer, unassigned; (+)) [Example 26] | 3.5 |
| CC(C(=O)Nc1cc(-c2[nH]c3ccc(F)nc3c2-c2ccc(F)cn2)ccn1)c1ccc(F)cc1 (single isomer, unassigned; (-)) [Example 49] | 34.5 |
| COCCc1ccnc2c(-c3ccccn3)c(-c3ccnc(NC(=O)Cc4ccc(F)cc4)c3)[nH]c12 | 14.8 |
| O=C(Cc1ccccc1)Nc1cc(-c2[nH]c3cccnc3c2-c2ccccn2)ccn1 | 2.25 |
| O=C(Cc1ccc(F)cc1)Nc1cc(-c2[nH]c3ccnnc3c2-c2ccccc2)ccn1 | 1.3 |
| CC(C(=O)Nc1cc(-c2[nH]c3ccc(F)nc3c2-c2ccc(F)cn2)ccn1)c1ccc(F)cc1 (single isomer, unassigned; (+)) [Example 48] | 1.69 |

====

biological target: CSNK1D (Homo sapiens (Human), UniProt P48730)
Sequence (P48730 whole entry): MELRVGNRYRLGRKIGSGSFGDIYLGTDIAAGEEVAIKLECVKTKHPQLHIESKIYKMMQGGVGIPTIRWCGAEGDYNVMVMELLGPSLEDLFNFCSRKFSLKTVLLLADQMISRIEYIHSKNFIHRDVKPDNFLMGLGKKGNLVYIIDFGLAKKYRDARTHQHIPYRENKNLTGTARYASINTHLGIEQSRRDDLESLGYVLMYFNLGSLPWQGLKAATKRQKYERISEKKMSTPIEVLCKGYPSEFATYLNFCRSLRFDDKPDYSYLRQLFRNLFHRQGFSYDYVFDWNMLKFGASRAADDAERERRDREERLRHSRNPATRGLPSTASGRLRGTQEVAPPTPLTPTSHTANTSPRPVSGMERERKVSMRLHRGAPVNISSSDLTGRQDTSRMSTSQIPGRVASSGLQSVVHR
Binary call on IC50 with cut-off 3 nM: strictly below means satisfied, and equality or higher means not satisfied.

| compound | discrete_label |
| --- | --- |
| O=C(Cc1ccc(F)cc1)Nc1cc(-c2[nH]c3cccnc3c2-c2ccccc2)ccn1 [Example 14] | satisfied |
| CC(C(=O)Nc1cc(-c2[nH]c3cccnc3c2-c2ccccn2)ccn1)c1ccc(F)cc1 (racemic) [Example 6] | not satisfied |
| O=C(Cc1ccc(F)cc1)Nc1cc(-c2[nH]c3cccnc3c2-c2ccccn2)ccn1 [Example 5] | satisfied |
| CC(C(=O)Nc1cc(-c2[nH]c3cccnc3c2-c2ccccn2)ccn1)c1ccc(F)cc1 (single isomer, unassigned; (-)) [Example 8] | not satisfied |
| O=C(Cc1ccc(F)cc1)Nc1cc(-c2[nH]c3cccnc3c2-c2ncccn2)ccn1 [Example 51] | not satisfied |
| O=C(Cc1ccc(F)cc1)Nc1cc(-c2[nH]c3cccnc3c2-c2cccc(F)c2)ccn1 [Example 15] | not satisfied |
| O=C(Cc1ccc(F)cc1)Nc1cc(-c2[nH]c3c(N4CCCC4=O)ccnc3c2-c2ccccn2)ccn1 [Example 40] | not satisfied |

====

pIC50 values, listed per item
Target: CSNK1A1 (Homo sapiens (Human))
Assay: CSNK1A1 High ATP Assay (ADP-Glo, 1 mM ATP)
Format: biochemical
Conditions: median, read-out: CSNK1A1 high ATP assay IC50 [mol/l] (median)
Method: CSNK1A1-inhibitory activity of compounds of the present invention in presence of 1 mM adenosine-tri-phosphate (ATP) was quantified employing the CSNK1A1-high-ATP-assay as described in the following paragraphs. In essence, the enzyme activity is measured by quantification of the adenosine-di-phosphate (ADP), which is generated as a co-product of the enzyme reaction, via the “ADP-Glo™ Kinase Assay” kit from the company Promega. […]
pIC50: −log10 of the molar value.

| compound | pIC50 |
| --- | --- |
| O=C(Cc1ccc(F)cc1)Nc1cc(-c2[nH]c3cccnc3c2-c2cccc(F)c2)ccn1 | 7.06 |
| O=C(Cc1ccc(F)cc1)Nc1cc(-c2[nH]c3cccnc3c2-c2ccc(Cl)s2)ccn1 | 7.06 |
| CC(C(=O)Nc1cc(-c2[nH]c3cccnc3c2-c2ccccc2)ccn1)c1ccc(F)cc1 (single isomer, unassigned; (+)) [Example 13] | 7.04 |
